// provenance: PubChem BioAssay AID1304

systemUnderTest: Neuropeptide Y receptor type 1 (Homo sapiens)
procedureDetails: NPY-Y1 receptor potentiators or agonists, primary screen, cell-based (AID 1304);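 also: cells stimulated with NPY at EC10 then isoproterenol at EC100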
assayContext: NPY-Y1 expressing cells, potentiator/agonist activation; at 3.6 µM
Hit rate of the full screen: of about 220,000 compounds, about 800 (0.36%) were called active. Rule as the data show it: active = activation above about 33% (passing the limit was not always enough); inactive = the rest. The full list was thinned out, with actives kept by preference.
Labels: Y = active, N = inactive

compound | systemUnderTest | answerLabel
Cc1nccn1CC(=O)N/N=C/c1ccc(O)c(O)c1 | Neuropeptide Y receptor type 1 (Homo sapiens) | N
CC(C)(O)C#Cc1ccc(C(=O)N2CCC(C(N)=O)(N3CCCCC3)CC2)cc1 | Neuropeptide Y receptor type 1 (Homo sapiens) | N
O=C(O)/C=C/C(=O)Nc1ccc(F)cc1F | Neuropeptide Y receptor type 1 (Homo sapiens) | N
COC(=O)c1sc(-c2ccc(C(C)(C)C)cc2)cc1NC(=O)/C=C/C(=O)O | Neuropeptide Y receptor type 1 (Homo sapiens) | Y
COc1ccccc1NC(=O)/C=C/C(=O)O | Neuropeptide Y receptor type 1 (Homo sapiens) | N
CCNS(=O)(=O)c1ccc(NC(=O)Nc2cccc(C(F)(F)F)c2)cc1 | Neuropeptide Y receptor type 1 (Homo sapiens) | Y
Cc1ccc(NC(=O)Nc2cccc(C(F)(F)F)c2)nc1 | Neuropeptide Y receptor type 1 (Homo sapiens) | N
CCc1cc(-c2n[nH]c(=S)n2CC(C)C)cs1 | Neuropeptide Y receptor type 1 (Homo sapiens) | N
NC(=O)C1(N2CCCCC2)CCN(C(=S)Nc2ccc(Cl)cc2)CC1 | Neuropeptide Y receptor type 1 (Homo sapiens) | N
O=C(Cc1cccc2ccccc12)NNC(=O)Nc1ccc(Cl)cc1 | Neuropeptide Y receptor type 1 (Homo sapiens) | N
Cc1ccc(N(CC(=O)Nc2cccc(N(C)S(C)(=O)=O)c2)S(C)(=O)=O)cc1 | Neuropeptide Y receptor type 1 (Homo sapiens) | N
CCNS(=O)(=O)c1ccc(NC(=O)Nc2cccc(OC)c2)cc1 | Neuropeptide Y receptor type 1 (Homo sapiens) | N
COc1ccc(C(=O)COC(=O)c2nn(C)c(=O)c3ccccc23)c(OC)c1 | Neuropeptide Y receptor type 1 (Homo sapiens) | N
O=C(Nc1ccccc1)Nc1ccc(C(F)(F)F)cn1 | Neuropeptide Y receptor type 1 (Homo sapiens) | N
COc1ccccc1OCCNC(=O)c1cc([N+](=O)[O-])cc([N+](=O)[O-])c1 | Neuropeptide Y receptor type 1 (Homo sapiens) | N
CCOC(=O)CN(C(=O)COc1nc(-c2ccccc2)cc(C)c1C#N)c1ccc(F)cc1 | Neuropeptide Y receptor type 1 (Homo sapiens) | N
C#CCOCCOCCOCCNc1nc(N2CCN(C(=O)[C@H](CCCCN)n3cc([C@@H](N)C(C)CC)nn3)CC2)nc(N2CCN(C(=O)[C@H](Cc3ccc(O)cc3)n3cc([C@@H](N)C(C)CC)nn3)CC2)n1 (stereo partly specified) | Neuropeptide Y receptor type 1 (Homo sapiens) | Y
COCCCNC(=O)c1ccc(CNS(=O)(=O)c2ccc(NC(C)=O)cc2)cc1 | Neuropeptide Y receptor type 1 (Homo sapiens) | Y
O=c1[nH]oc(O)c1-c1ncc(C(F)(F)F)cc1Cl | Neuropeptide Y receptor type 1 (Homo sapiens) | N
Oc1ccc(/C=N/Nc2ccc(C(F)(F)F)cn2)cc1O | Neuropeptide Y receptor type 1 (Homo sapiens) | Y
CCCCNC(=O)C1CCC(CNS(=O)(=O)c2ccc(NC(C)=O)cc2)CC1 (stereo unspecified) | Neuropeptide Y receptor type 1 (Homo sapiens) | N
